Data origin, for the record: PubChem BioAssay

# tested.target: Steroidogenic factor 1 (Homo sapiens) (UniProt Q13285)
# Sequence (Q13285 whole entry, looked up): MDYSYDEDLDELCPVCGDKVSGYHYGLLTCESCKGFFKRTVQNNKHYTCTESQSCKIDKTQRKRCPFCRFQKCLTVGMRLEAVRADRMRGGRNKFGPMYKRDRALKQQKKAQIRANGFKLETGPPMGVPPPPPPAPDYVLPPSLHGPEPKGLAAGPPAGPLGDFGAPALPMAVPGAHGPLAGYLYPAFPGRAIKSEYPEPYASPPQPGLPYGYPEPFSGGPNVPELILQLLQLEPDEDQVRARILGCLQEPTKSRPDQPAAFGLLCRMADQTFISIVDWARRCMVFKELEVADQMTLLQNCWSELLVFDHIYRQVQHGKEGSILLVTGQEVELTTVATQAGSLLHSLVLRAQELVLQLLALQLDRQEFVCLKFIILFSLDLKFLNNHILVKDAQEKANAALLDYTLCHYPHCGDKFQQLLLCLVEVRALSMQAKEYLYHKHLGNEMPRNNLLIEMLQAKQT
# assay.comment: SF1 (NR5A1) inverse agonists, counter-screen for LRH-1 inverse agonist project, cell-based, luminescence, high throughput (AID 651614);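 note: cells cotransfected with StAR promoter reporter and SF1 expression vector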
# experimental.context: cell-based SF1 luciferase reporter, at 3.6 µM
Calls of active or inactive are those of the source. Cut-off read from the data, not from the text of the source: active = inhibition above about 44%; inactive = the rest.
Labels: True (active), False (inactive)

                                    molecule  class_assignment
 0             Nc1cccc(OCCCCCOc2cccc(N)c2)c1              True
 1      COC(=O)/C=C/C(=O)Nc1cccc(C(F)(F)F)c1              True
 2     N#Cc1c(NC(=O)CSc2ncn[nH]2)sc2c1CCCCC2              True
 3  CCOc1ccc(CCNC(=O)COC(=O)CCC(=O)c2cccs2)cc1OCC              True
 4  COCCNc1ccc([N+](=O)[O-])cc1C(=O)NC1CCCc2ccccc21 (stereo not drawn)              True
 5                     Nc1cc2ccncc2c2ccccc12              True
 6  Cc1cc(C)c2c(=O)[nH]c(SCC(=O)Nc3ccc(Br)cc3)nc2n1             False
 7  CC(=O)c1ccc(NC(=O)CN2C(=O)NC3(CCc4ccccc43)C2=O)cc1 (stereo not drawn)              True
 8  COc1cc(C)c(C(=O)Oc2cc(C)c(C(=O)O)c(O)c2C)c(O)c1C              True
 9      N=c1sccn1CC(=O)Nc1ccc(S(N)(=O)=O)cc1              True
10  N#CCSc1ccccc1NC(=O)CN1C(=O)C2CC=CCC2C1=O (stereo not drawn)              True
11           CCC(C)(C)c1ccc(Oc2ccc(N)cc2)cc1              True
12  Cn1c2c(c(=O)n(C)c1=O)C(C(F)(F)F)(C(F)(F)F)N=C(c1ccc(Cl)cc1)N2              True
13            NC(=S)N/N=C/c1ccc(C(F)(F)F)cc1              True
14       O=C(COC(=O)c1ccc(Br)cc1)Nc1ccccc1Br              True
15                     Nc1cc(Cc2ccccc2)ccc1O             False
16  O=C(COc1ccc2c3c(c(=O)oc2c1)CCCC3)NCc1ccccn1              True
17  COc1cc(-c2noc(C)c2-c2ccc(N(C)C)nc2)cc(OC)c1OC              True
18  COc1ccccc1-n1c(SCC(=O)Nc2ccc(F)cc2)nc2c(c1=O)SCC2              True
19     CCOc1cc(CNc2ccc3c(c2)OCCO3)cc(Br)c1OC             False
20  O=C(Nc1ccc(Cc2ccncc2)cc1)c1cc(F)c(F)cc1Cl             False
21  Cc1c(NC(=O)c2cc(-c3cccs3)nc3ccccc23)c(=O)n(-c2ccccc2)n1C             False
22  COc1cccc(C2c3cc4c(cc3OC(NNC(N)=O)C2C)OCO4)c1O (stereo not drawn)              True
23  CCOc1ccc(C(=O)Nc2cnn(Cc3ccc(Cl)c(Cl)c3)c2)cc1              True
24  Cc1ccc(-c2nc3ncccc3o2)cc1NC(=O)c1ccc([N+](=O)[O-])o1              True
25          Cc1ccc(Sc2ccc(NC(=O)CCl)cc2)cc1C              True
26  CCc1c(C)nc(SCC(=O)Nc2ccc3c(c2)OCCO3)[nH]c1=O              True
27  Cn1c2c(c(=O)n(C)c1=O)C(C(F)(F)F)(C(F)(F)F)N=C(CCC1CCCCC1)N2              True
28  COc1cccc2c1C(=O)c1c(O)c3c(c(O)c1C2=O)C[C@](O)(C(C)=O)C[C@H]3O[C@@H]1C[C@@H](N)[C@@H](O)[C@@H](C)O1              True
29  O=C1C(Nc2ccc(O)cc2)=C/C(=N/S(=O)(=O)c2cccs2)c2ccccc21              True
30  C=C1C(=O)C23CCC4C(C)(C(=O)OC)CCCC4(C)C2CCC1(O)C3 (stereo not drawn)              True
31   CN(C)CCNc1ccc2ncn3c4ccc(O)cc4c(=O)c1c23              True
32  CC(C)CC1(C)NC(=O)N(CC(=O)Nc2ccc3c(c2)OCCO3)C1=O (stereo not drawn)              True
33        COC(=O)CNc1nc(-c2cccnc2)nc2ccccc12             False
34  OC[C@H]1O[C@@H](n2cnc3c(NCc4ccco4)ncnc32)[C@H](O)[C@@H]1O              True
35     CCOc1c(Br)cc(CNc2ccc3c(c2)OCCO3)cc1OC             False
36  CCC(C)(C)c1ccc(OCCCC[n+]2cccc(C)c2C)c(C(C)(C)CC)c1              True
37  O=C(c1ccc(Cl)cc1)N1CCCCC(Cl)C1=O (stereo not drawn)              True

====

# assay.comment: StAR promoter reporter inhibitors, counter-screen for LRH-1 inverse agonist project, cell-based, luminescence, high throughput (AID 651611)
# experimental.context: StAR promoter luciferase reporter counterscreen, at 3.6 µM
Activity calls are given as the source filed them. Rule as the data show it: active = inhibition above about 28%; inactive = the rest.
Labels: active, inactive

In [3]: df
Out[3]:
                                    molecule  class_assignment
 0  O=C(Nc1ccccc1C(=O)NC1CC1)c1ccc([N+](=O)[O-])o1          inactive
 1        CCOc1cc(S(=O)(=O)NCc2ccncc2)ccc1Cl          inactive
 2                 COc1ccc(CN(C)C(=O)CCl)cc1          inactive
 3  Cc1c(C(C)C)c(=O)n(-c2ccc(S(=O)(=O)NCc3ccccc3)cc2)n1C          inactive
 4   O=C(Nc1ccc(Cl)cn1)c1ccc([N+](=O)[O-])o1          inactive
 5  O=C(NCc1cccc(C(F)(F)F)c1)c1cc(-c2ccccc2)nn1CC1CC(c2cccnc2)=NO1 (stereo not drawn)          inactive
 6  O=C(Nc1ccc(Br)cn1)C1CCN(S(=O)(=O)c2cccs2)CC1          inactive
 7           C/C(CC(C)(C)C1CCCCC1)=N\NC(N)=S            active
 8  CC(=O)Nc1cccc(-c2cc(NC=O)c3ncc(-c4cccc(C(C)=O)c4)n3c2)c1            active
 9  COc1cc(C(=O)NN=Cc2ccc(N(C)C)cc2)cc(OC)c1OC            active
10  CCOc1ccc2c(c1)sc(N)[n+]2Cc1cc(C)cc2cccnc12            active
11  C[C@@H](C(=O)Nc1ccc2c(c1)OCCO2)n1c(=O)[nH]c2ccccc2c1=O          inactive
12   COCCn1c(C)cc(C2=NNC(=Nc3ccccc3F)SC2)c1C            active

====

# assay.comment: VP16 transactivation reporter inhibitors, counter-screen for LRH-1 inverse agonist project, cell-based, luminescence, high throughput (AID 651615)
# experimental.context: Gal4-VP16 luciferase reporter cells, at 3.6 µM
The source made the active and inactive calls. Cut-off read from the data, not from the text of the source: active = inhibition above about 33%; inactive = the rest.
Labels: active, inactive

>>> df
                                   compound  class_assignment
0  COc1cccc2c1C(=O)c1c(O)c3c(c(O)c1C2=O)C[C@@](O)(C(=O)CO)C[C@@H]3OC1CC(N)C(O)C(C)O1 (stereo partly drawn)            active
1  CCC(C(=O)NCc1ccccc1)n1c(CSCCOc2ccccc2)nc2ccccc21 (stereo not drawn)          inactive
2  CCCc1cc(=O)oc2c(C)c(OCC(=O)NCCCn3ccnc3)ccc12          inactive
3  COc1cccc(-c2cc(NC=O)c3ncc(-c4ccc(C(C)=O)cc4)n3c2)c1          inactive
4  O=C(NNc1c(F)c(F)cc(F)c1F)C1CCN(S(=O)(=O)c2ccccc2F)CC1          inactive
5  CC(C)CCCCCCCCCCCCC(=O)NCC(=O)NC1C(O)C(O)C(Nc2ncnc3nc[nH]c23)OC1C(O)CO (stereo not drawn)            active
6  CN(C)S(=O)(=O)c1cccc(CSCc2cccc(S(=O)(=O)N(C)C)c2)c1            active
7  Cc1ccc(NC(=O)COC(=O)c2cc(=O)c3ccccc3o2)c(Br)c1          inactive
